Test system: MALME-3M melanoma
procedure.details: NCI-60 one-dose screen, 48 h
condition.set: 10 µM unless noted
About 83,000 compounds went through this panel and 20% of them were active in at least one assay; those are over-represented in the sample as a whole. Active and inactive are the calls of the source. Rule for the calls: active = growth percent below 10; inactive = the rest.
Outcomes: true (active), false (inactive)

>>> label_value("COc1cc(OC)cc(C(=O)Nc2cnc(Nc3ccc(N4CCOCC4)nc3)nc2Oc2ccc(C(F)(F)F)cc2)c1")
"false"
>>> label_value("COC(=O)CNC(=O)c1ccc(NC(=O)c2[nH]c(C)c(Cl)c2Cl)c(O[C@H]2CCNC2)c1")
"false"
>>> label_value("CCOC(=O)c1c(NC(=S)Nc2ccc([N+](=O)[O-])cc2)sc2c1CCCCC2")
"false"
>>> label_value("COc1ccc(C(=O)/C=C/c2ccc(Cl)cc2)cc1S(N)(=O)=O")
"false"
>>> label_value("CO[C@H]1/C=C/O[C@@]2(C)Oc3c(C)c(O)c4c(O)c(c5c(nc6cc(C)ccn65)c4c3C2=O)NC(=O)/C(C)=C\\C=C\\[C@H](C)[C@H](O)[C@@H](C)C(O)[C@@H](C)[C@H](OC(C)=O)[C@@H]1C (stereo partly drawn)")
"false"
>>> label_value("CCCC1Cc2cc(-n3nc(C)c4c3CC(C)(C)CC4=O)cc(NC3CCC(O)CC3)c2C(=O)N1 (stereo not drawn)")
"false"
>>> label_value("COc1cc(C(=O)/C=C/c2c(-c3cccs3)nc3sc(C)cn23)cc(OC)c1OC")
"true"
>>> label_value("O=C(N/N=C/c1ccccc1Cl)c1ccccc1Nc1ccnc(C(F)(F)F)c1")
"true"
>>> label_value("COC(=O)[C@H](C)NC(=O)c1ccc(NC(=O)c2[nH]c(C)c(Cl)c2Cl)c(OCCN)c1")
"false"
>>> label_value("CS(=O)(=O)c1ccc(/C(=N/NC(N)=S)c2ccc(F)cc2)cc1")
"false"
>>> label_value("COc1ccccc1-c1nc2ccc3[nH]ncc3c2c2c1CCCC2")
"false"
>>> label_value("CC1=C2[C@@H](CC1)[C@]1(C)O[C@@](C(C)C)(C[C@H]1OC(=O)CO)[C@H]2OC(=O)CCCc1ccccc1")
"false"
>>> label_value("COC1=C(OC)C(=O)C(CCCCCCCCCCO)=C(C)C1=O")
"false"
>>> label_value("O=C(Nc1ncc(Cc2ccccc2)s1)c1ccc2c(c1)OCCO2")
"false"
>>> label_value("CN1CCN(Cc2ccc(NC(=O)c3cc(C#Cc4cnc(N)c5ncccc45)n(C)n3)cc2C(F)(F)F)CC1")
"false"
>>> label_value("CN(C)c1ccc(Cc2cc(-c3ccccc3)nn(C/C(=N/O)c3ccccc3)c2=O)cc1")
"false"
>>> label_value("CCN(CC)c1ccc(/C=N/NC(=O)c2ccccc2Nc2ccnc(C(F)(F)F)c2)c(O)c1")
"false"
>>> label_value("Cc1ccc(C23CCC(=O)N2CCc2cncn23)cc1 (stereo not drawn)")
"false"
>>> label_value("C[C@H]1c2ccccc2CN1CCCOc1cc2c(cc1OCC1CC1)C1(CCCC1)C(N)=N2")
"true"
>>> label_value("CCN1C(=O)N(CC)C2C1NC(=S)N2/N=C/C=C/c1ccccc1 (stereo not drawn)")
"false"
>>> label_value("CN(C)C(=O)OCc1ccc2c(Cl)cc(Cl)c(O)c2n1")
"false"
>>> label_value("CC(=O)O[C@H]1C[C@@]2(C)[C@@H](C[C@@H](O)[C@H]3[C@@]4(C)CC[C@H](N5CCCC5)[C@@H](C)[C@@H]4CC[C@@]32C)/C1=C(\\CCC=C(C)C)C(=O)O")
"false"
>>> label_value("COc1ccc(Nc2nc(Nc3cc(C)[nH]n3)c3cc(OC)c(OC)cc3n2)cc1")
"true"
>>> label_value("O=C1NCCN1/N=C/c1c(Cl)n(Cc2ccc(Cl)cc2)c2ccccc12")
"false"
>>> label_value("Nc1cc(-c2ccc(Cl)cc2)nn1-c1nc(-c2ccc(Br)cc2)cs1")
"false"
>>> label_value("CSc1nn2c(-c3cc4cc(Br)ccc4oc3=O)ccnc2c1C#N")
"false"
>>> label_value("CNC(=O)c1cc(Oc2ccc3nc(NC(=O)c4cc(C(F)(F)F)cc(C(F)(F)F)c4)sc3c2)ccn1")
"true"
>>> label_value("C(CCCSC1=NCCN1)CCSC1=NCCN1")
"false"
>>> label_value("OC1CSSC1Cn1cnc2c(Nc3ccc(F)c(Cl)c3)ncnc21 (stereo not drawn)")
"false"
>>> label_value("COc1ccc(Cn2cc(C(=O)N=Nc3c(O)[nH]c4ccc(Br)cc34)nn2)cc1")
"true"
>>> label_value("NC(=O)[C@@H]1Cc2ccccc2CN1C(=O)c1ccc2c(c1)Cc1ccccc1-2")
"false"
>>> label_value("O=C(Nc1ncc(Cc2cc(C(F)(F)F)ccc2Cl)s1)C(=S)N1CCOCC1")
"false"
>>> label_value("CCCCN(CCC#N)C(N)=O")
"false"
>>> label_value("COc1cc2c(cc1-c1c(C)noc1C)ncc1nc(C3CCOCC3)n(C3CCC(OC(F)F)CC3)c12 (stereo not drawn)")
"false"
>>> label_value("O=C1C=CC2(O)OC(c3ccccc3)CC(=O)C2=C1O (stereo not drawn)")
"false"
>>> label_value("Cc1nc2ccccc2c(/C=C/c2ccc(Br)cc2)c1C(=O)/C=C/c1ccccc1")
"true"
>>> label_value("O=C(OCc1ccc2c(Br)cc(Br)c(O)c2n1)N1CCN(C(=O)c2cc3ccccc3[nH]2)CC1")
"false"
>>> label_value("CCOC(=O)c1ccc2c(c1)c1c(C)c3cnccc3c(C)c1n2C")
"true"
